Recorded measurements of pIC50, one per entry
# target.system: Dihydrofolate reductase (Mus musculus, UniProt P00375)
# measurement.protocol: Inhibitory activity against dihydrofolate reductase(DHFR) isolated from L1210 murine leukemia cells
# Format: cell-free
pIC50: −log10 of the molar value.

| compound | pIC50 |
| --- | --- |
| Nc1nc(N)c2nc(CNc3cccc(C(=O)NC(CCC(=O)O)C(=O)O)c3)cnc2n1 (configuration not stated) | 3.70 |
| Nc1nc(N)c2nc(CNc3ccc(C(=O)N[C@@H](CCC(=O)O)C(=O)O)cc3)cnc2n1 | 8.70 |

###

# target.system: Dihydrofolate reductase (Mus musculus)
# Sequence (P00375 whole entry): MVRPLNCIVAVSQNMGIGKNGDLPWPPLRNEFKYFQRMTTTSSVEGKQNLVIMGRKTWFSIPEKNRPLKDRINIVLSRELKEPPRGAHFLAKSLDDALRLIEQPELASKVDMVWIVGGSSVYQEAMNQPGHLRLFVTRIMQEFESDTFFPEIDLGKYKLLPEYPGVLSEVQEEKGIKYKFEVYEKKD
# measurement.protocol: Inhibitory activity against dihydrofolate reductase(DHFR)
pIC50: −log10 of the molar value.
Recorded measurements of pIC50, one per entry

| compound | pIC50 |
| --- | --- |
| CN(Cc1cnc2nc(N)nc(N)c2n1)c1ccc(C(=O)NC(C/C=C/C(=O)O)C(=O)O)cc1 (stereo not drawn) | 4.49 |
| CN(Cc1cnc2nc(N)nc(N)c2n1)c1ccc(C(=O)N(CCC(=O)O)CC(=O)O)cc1 | 7.42 |
| Nc1nc(N)c2nc(CNc3ccc(C(=O)NC(C/C=C/C(=O)O)C(=O)O)cc3)cnc2n1 (stereo not drawn) | 4.34 |

###

# Tested on: L1210
# measurement.protocol: Inhibitory activity against growth of mouse L1210 leukemia cells
# Assay type: functional, cell-based
pIC50: −log10 of the molar value.
assay.metric: pIC50

| compound | experimental.result |
| --- | --- |
| Nc1nc(N)c2nc(CNc3ccccc3C(=O)NC(CCC(=O)O)C(=O)O)cnc2n1 (configuration not stated) | 4.19 |
| Nc1nc(N)c2nc(CNc3cccc(C(=O)NC(CCC(=O)O)C(=O)O)c3)cnc2n1 (configuration not stated) | 5.82 |
